Tested on: PPARg DBDmut IVT, anti-PPARg (DBD mutation: PPARg1 K132A/R137A, NR concentration 270 nM)
Assay: PBM binding z-score (relative to random genomic background probes); higher = stronger binding; sequences stand for … in GC…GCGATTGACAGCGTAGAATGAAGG
Note to self: values exactly at 1 are criterion met. So PBM binding z-score at or above 1 is criterion met, below is criterion not met.

Sequence entry | Class name
TAGCCTAGGTCATTCAGGGGCCACTATAGAAAGC | criterion not met
CGAACGAGGTCACCAGGACAGTGAAGAGGTTGGA | criterion not met
TCTAGTGGGTCAAAGGTCACACACTCGAAATGCG | criterion met
AGAATGAGGTTACTAAAGATCAGGGAAACGCTTG | criterion not met
CGAACTAGGTCAAGGCCAGTGAATCTCCGCACGC | criterion met
CGAACGAGGTCATCCAGGACAGTGAATACATTGA | criterion met
CGAACTAGGTCAAGGGACAGTGAAAGGCGACGTA | criterion not met
CGTCCAAGGTCATAGAGGTCAGTGAATGCCGAGT | criterion met
TCTAGTTGGTCACGGAGGTCACAAACGACGGGTA | criterion not met
CAAACTAGGTCAAAAGGTCAAAGTCCGCTTCCCG | criterion met
GATACAGGGTCAAGGTCAGAGTACGCGTATTGAT | criterion not met

---

Test system: THRa homodimer (NR concentration 90 nM)
Experiment: PBM binding z-score (relative to random genomic background probes); higher = stronger binding; sequences stand for … in GC…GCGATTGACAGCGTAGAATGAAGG
Could you label it Met if measured PBM binding z-score is 2 or higher, and Not met otherwise?

Sequence entry | Tested system | Class name
TAGCCTAGGTCATGGGCCAGTGTACCACGCGAAC | THRa homodimer (NR concentration 90 nM) | Not met
GTTACAGGGTCAAGGCCAGAGTACGCGTATTGAT | THRa homodimer (NR concentration 90 nM) | Not met
CCTACTGGGCCGTTCAGAGGTCATTGATCATATG | THRa homodimer (NR concentration 90 nM) | Not met
GCTGCGAGGTCAACTGATGGTCAGCTAAAGCTCG | THRa homodimer (NR concentration 90 nM) | Met
TTACCAAGGTGAAAGGTCGTTGCTGCACGCCTTG | THRa homodimer (NR concentration 90 nM) | Not met
ACGCGGAGGACAAAGGTCAGAGCTACGCCAGTGA | THRa homodimer (NR concentration 90 nM) | Not met

---

Each entry below lists one item and its recorded PBM binding z-score value.
System: RARg homodimer (NR concentration 270 nM)
Assay: PBM binding z-score (relative to random genomic background probes); higher = stronger binding; sequences stand for … in GC…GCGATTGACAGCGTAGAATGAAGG
Parameter: PBM binding z-score

Sequence entry | Measurement
CCTACTGGGCCAAAAAGTTCATTGATGCCGATAA | 1.8
CTATGTAGGTCAAGGGGGTCATTCAGTTTGAAAG | 6.93
TAGCCTAGGTCATGCGGCCCAGTATAGTGTCGGC | 4.07
CCAACTAGGTCAAAGGACAGTGAAAGGCGACGTA | 4.53
GGAACGAGGTCAAAGTTGATAGCATCTGTCGACG | 6.56
TTACCAAGGTCAAAGGTCGTTGATGCACGCCTTG | 6.63
CTATGTAGGTTAGGGGGGTCATTCAGTTTGAAAG | 4.91
TCTTGTAGGTCAATAGAGGTTAAGAAAGTGCGCT | 5.15
TGTCAAAGTTCAAAGGTCACGTAAGTATCCACAC | 9.03
ACTCGGATGACAAAGGTCAGAGCTACGCCAGTGA | 4.66
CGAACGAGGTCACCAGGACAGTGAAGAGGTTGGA | 7.24
CCTACTGGGCCAAAGGTGATTGATTCCAATGCTC | 0.234
